Record form. Attribute: total protein half-life in vivo. Fill in for each entry.
- experiment.notes: total protein half-life in vivo (active degradation + dilution); higher = more stable protein
- assay.setup: wild type E. coli NCM3722; growth: P-lim chemostat; doubling time 6 h
Numbers only, in h.

Ask: total protein half-life in vivo for `MQILADLLNTIPAIDSTAMSRAQRHIDGLLKPVGSLGKLEVLAIQLAGMPGLNGIPHVGKKAVLVMCADHGVWEEGVAISPKEVTAIQAENMTRGTTGVCVLAEQAGANVHVIDVGIDTAEPIPGLINMRVARGSGNIASAPAMSRRQAEKLLLDVICYTQELAKNGVTLFGVGELGMANTTPAAAIVSTITGRDPEEVVGIGANLPTDKLANKIDVVRRAITLNQPNPQDGVDVLAKVGGFDLVGIAGVMLGAASCGLPVLLDGFLSYAAALAACQMSPAIKPYLIPSHLSAEKGARIALSHLGLEPYLNMEMRLGEGSGAALAMPIIEAACAIYNNMGELAASNIVLPGNTTSDLNS` ?
Reply: 4.99

Ask: total protein half-life in vivo for MIHSSVKRWGNSPAVRIPATLMQALNLNIDDEVKIDLVDGKLIIEPVRKEPVFTLAELVNDITPENLHENIDWGEPKDKEVW [P0AE72] ?
Reply: 1.3

Next sequence, please.
Ask: total protein half-life in vivo for `MIWKRKITLEALNAMGEGNMVGFLDIRFEHIGDDTLEATMPVDSRTKQPFGLLHGGASVVLAESIGSVAGYLCTEGEQKVVGLEINANHVRSAREGRVRGVCKPLHLGSRHQVWQIEIFDEKGRLCCSSRLTTAIL` ?
Reply: 6.54

Numbers sourced from the supplement of paper PMC11246515.
